Measured bioavailability of individual entries
experiment: Oral bioavailability in Sprague-Dawley rat; type: ADME, organism-based; settings: in vivo
ASSAY READOUT: bioavailability (%)

1. CC(C)C[C@H](NC(=S)Nc1ccccc1)C(=O)N[C@H]1CCOC1O (some centres not stated) :: 66
2. CC(C)C[C@@H](C=O)NC(=O)[C@@H](NS(=O)(=O)c1ccc(F)cc1)C(C)C :: 18
